Molecular target: human CMKLR1 (Homo sapiens)
Construct: host or cells: HEK293A (Invitrogen), stably expressing human Gα15
Sequence (Q99788 whole entry): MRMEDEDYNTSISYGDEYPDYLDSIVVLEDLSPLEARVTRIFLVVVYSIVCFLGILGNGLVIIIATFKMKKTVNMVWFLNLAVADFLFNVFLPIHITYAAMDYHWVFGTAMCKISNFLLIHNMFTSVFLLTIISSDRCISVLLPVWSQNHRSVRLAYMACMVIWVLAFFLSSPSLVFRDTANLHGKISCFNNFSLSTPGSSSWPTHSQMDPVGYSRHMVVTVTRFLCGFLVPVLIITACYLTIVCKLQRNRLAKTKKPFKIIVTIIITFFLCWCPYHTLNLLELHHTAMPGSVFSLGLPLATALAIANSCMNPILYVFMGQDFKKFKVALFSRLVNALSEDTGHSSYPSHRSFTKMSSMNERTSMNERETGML
Experiment: Ca2+ mobilization (CellLux imaging) agonist assay in HEK293A cells expressing CMKLR1 and Gα15
Assay type: cell-based
Details: Ca2+ mobilization, CMKLR1; decimal comma
Square brackets hold non-standard residues; d marks the D form. Peptide text beside a SMILES is read from it.
result_type: max response

Solved cases (5 shown):
CC(C)C[C@H](N)C(=O)N[C@H](Cc1c[nH]c2ccccc12)C(=O)NCC(=O)NCC(=O)N1CCC[C@H]1C(=O)N[C@@H](Cc1ccc(O)cc1)C(=O)N[C@@H](C)C(=O)N[C@H](CC(=O)O)C(=O)N[C@@H](CO)C(=O)O [compound 131] (H-L[dW]GGPYA[dD]S-OH; N-terminus assumed)
1,67 DF/F0
CC(C)C[C@H](NC(=O)[C@H]1CCCN1C(=O)CNC(=O)[C@H](Cc1ccccc1)NC(=O)[C@H](CC(C)C)NC(=O)[C@@H](N)Cc1ccccc1)C(=O)N[C@@H](C)C(=O)N[C@@H](CC(C)C)C(=O)N1CCC[C@@H]1C(=O)O [compound 116] (H-FLFG[dP]LAL[dP]-OH; N-terminus assumed)
0,9 DF/F0
CC(C)C[C@H](NC(=O)[C@@H](N)Cc1ccc(O)cc1)C(=O)N1CCC[C@H]1C(=O)N[C@H](CCC(N)=O)C(=O)N[C@@H](CCC(N)=O)C(=O)N[C@@H](Cc1ccc(O)cc1)C(=O)N[C@@H](C)C(=O)N[C@@H](Cc1ccccc1)C(=O)N[C@H](Cc1ccccc1)C(=O)O [compound 123] (H-YLP[dQ]QYAF[dF]-OH; N-terminus assumed)
1,74 DF/F0
CC(C)C[C@H](NC(=O)[C@@H](N)Cc1ccc(O)cc1)C(=O)N1CCC[C@H]1C(=O)NCC(=O)N[C@@H](CCC(N)=O)C(=O)N[C@@H](Cc1ccc(O)cc1)C(=O)N[C@@H](C)C(=O)N[C@@H](Cc1ccccc1)C(=O)N[C@H](Cc1ccccc1)C(=O)O [compound 80] (H-YLPGQYAF[dF]-OH; N-terminus assumed)
1,77 DF/F0
CC(C)C[C@H](NC(=O)[C@@H](Cc1ccccc1)NC(=O)[C@H]1CCCN1C(=O)[C@H](CC(C)C)NC(=O)[C@H](C)NC(=O)[C@H](Cc1ccc(O)cc1)NC(=O)[C@H]1CCCN1C(=O)[C@H](CC(C)C)NC(=O)[C@H](N)Cc1ccccc1)C(=O)O [compound 118] (H-[dF]L[dP]YAL[dP][dF]L-OH; N-terminus assumed)
0,61 DF/F0

Query CC(C)C[C@H](NC(=O)[C@H](Cc1ccc(O)cc1)NC(=O)[C@@H](Cc1ccccc1)NC(=O)[C@@H]1CCCN1C(=O)[C@H](CC(C)C)NC(=O)[C@@H](N)Cc1ccc(O)cc1)C(=O)N1CCC[C@H]1C(=O)NCC(=O)N[C@H](Cc1ccccc1)C(=O)O [compound 145] (H-YLP[dF]YLPG[dF]-OH; N-terminus assumed) yields max response of 1,02 DF/F0
